- test.system: bovine cardiac myofibrils (full-length cardiac myosin ATPase in the native sarcomere) (Bos taurus (Bovine), UniProt Q9BE39)
- Sequence (Q9BE39 whole entry): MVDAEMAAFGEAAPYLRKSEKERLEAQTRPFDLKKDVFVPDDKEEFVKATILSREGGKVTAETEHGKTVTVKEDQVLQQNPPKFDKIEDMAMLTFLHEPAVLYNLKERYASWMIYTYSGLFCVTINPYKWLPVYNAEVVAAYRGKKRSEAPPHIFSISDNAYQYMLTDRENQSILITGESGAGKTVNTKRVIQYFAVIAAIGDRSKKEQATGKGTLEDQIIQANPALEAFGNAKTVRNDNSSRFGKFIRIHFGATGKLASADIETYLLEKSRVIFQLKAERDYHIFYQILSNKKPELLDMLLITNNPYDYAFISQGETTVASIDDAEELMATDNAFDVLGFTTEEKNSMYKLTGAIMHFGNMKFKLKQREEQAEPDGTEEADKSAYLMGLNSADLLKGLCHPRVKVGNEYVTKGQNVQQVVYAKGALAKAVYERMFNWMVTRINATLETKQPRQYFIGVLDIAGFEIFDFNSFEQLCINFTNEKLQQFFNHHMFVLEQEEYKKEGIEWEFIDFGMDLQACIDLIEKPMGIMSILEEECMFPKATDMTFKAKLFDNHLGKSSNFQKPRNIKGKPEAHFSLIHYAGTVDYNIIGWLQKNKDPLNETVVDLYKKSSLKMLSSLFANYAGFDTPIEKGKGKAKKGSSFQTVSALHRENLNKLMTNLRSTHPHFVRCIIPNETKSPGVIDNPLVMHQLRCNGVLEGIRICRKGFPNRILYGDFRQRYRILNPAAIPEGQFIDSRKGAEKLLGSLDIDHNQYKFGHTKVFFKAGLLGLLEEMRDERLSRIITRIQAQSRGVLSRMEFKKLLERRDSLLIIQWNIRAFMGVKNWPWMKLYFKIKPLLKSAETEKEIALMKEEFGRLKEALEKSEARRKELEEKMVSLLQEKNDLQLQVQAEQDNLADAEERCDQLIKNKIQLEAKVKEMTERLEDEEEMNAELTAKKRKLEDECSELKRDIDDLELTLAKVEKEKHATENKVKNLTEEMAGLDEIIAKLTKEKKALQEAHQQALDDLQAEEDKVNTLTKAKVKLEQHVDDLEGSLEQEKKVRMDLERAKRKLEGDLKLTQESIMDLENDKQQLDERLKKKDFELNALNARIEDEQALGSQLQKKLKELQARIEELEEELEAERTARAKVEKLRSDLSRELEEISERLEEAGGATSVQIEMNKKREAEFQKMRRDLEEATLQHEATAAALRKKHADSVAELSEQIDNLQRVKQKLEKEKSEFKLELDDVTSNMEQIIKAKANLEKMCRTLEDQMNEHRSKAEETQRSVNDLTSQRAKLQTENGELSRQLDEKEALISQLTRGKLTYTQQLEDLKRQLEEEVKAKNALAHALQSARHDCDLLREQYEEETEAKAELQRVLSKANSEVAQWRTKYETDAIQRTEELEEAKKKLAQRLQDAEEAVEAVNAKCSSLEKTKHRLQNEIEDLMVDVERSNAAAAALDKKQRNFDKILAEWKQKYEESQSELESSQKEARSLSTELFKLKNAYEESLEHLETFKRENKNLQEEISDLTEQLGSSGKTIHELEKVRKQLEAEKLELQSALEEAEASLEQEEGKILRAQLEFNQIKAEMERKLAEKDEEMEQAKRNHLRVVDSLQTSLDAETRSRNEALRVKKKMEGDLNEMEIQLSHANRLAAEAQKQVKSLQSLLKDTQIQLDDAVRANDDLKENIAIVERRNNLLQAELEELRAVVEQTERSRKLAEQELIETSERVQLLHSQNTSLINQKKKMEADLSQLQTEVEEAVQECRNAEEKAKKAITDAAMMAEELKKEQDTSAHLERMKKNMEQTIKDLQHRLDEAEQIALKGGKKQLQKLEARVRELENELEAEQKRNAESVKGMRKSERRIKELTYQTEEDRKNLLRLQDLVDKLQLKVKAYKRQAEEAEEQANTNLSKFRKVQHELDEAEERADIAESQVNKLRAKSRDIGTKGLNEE
- Sequence (P85100 whole entry partner): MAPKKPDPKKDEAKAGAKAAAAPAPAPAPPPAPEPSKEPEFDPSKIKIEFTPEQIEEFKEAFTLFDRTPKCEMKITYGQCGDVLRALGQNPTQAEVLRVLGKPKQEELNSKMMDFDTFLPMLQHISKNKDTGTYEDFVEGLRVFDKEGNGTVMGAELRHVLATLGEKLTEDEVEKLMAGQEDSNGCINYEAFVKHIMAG
- Sequence (Q3SZE5 whole entry partner): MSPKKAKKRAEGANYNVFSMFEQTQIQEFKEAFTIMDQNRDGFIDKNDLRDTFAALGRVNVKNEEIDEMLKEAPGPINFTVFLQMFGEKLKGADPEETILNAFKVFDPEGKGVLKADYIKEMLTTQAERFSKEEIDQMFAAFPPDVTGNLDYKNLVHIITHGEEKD
- run.description: Skinned bovine cardiac myofibril ATPase assay (PK/LDH-coupled)
- experimental.setup: Ca2+ activating to 75% of maximal rate, read-out: CDMF75 IC50
- Method: To evaluate the effect of compounds on the ATPase activity of full-length cardiac myosin in the context of the native sarcomere, skinned myofibril assays were performed. […] Small molecule agents were assessed for their ability to inhibit the steady-state ATPase activity of bovine cardiac myofibrils using pyruvate kinase and lactate dehydrogenase (PK/LDH)-coupled enzyme system. This assay regenerates myosin-produced ADP into ATP by oxidizing NADH, producing an absorbance change at 340 nm. […]
pIC50: −log10 of the molar value.
endpoint: pIC50

| molecule | endpoint | endpoint.value |
| --- | --- | --- |
| O=C(N[C@@H]1CCc2cc(-c3noc(C4CC4)n3)ccc21)C(F)F [Compound 439] | pIC50 | 5.32 |
| COCc1nc(-c2ccc3c(c2)CC[C@H]3NC(=O)c2nnn(C)n2)no1 [Compound 144] | pIC50 | 5.64 |
| Cc1cncc(C(=O)NC2CCc3cc(-c4noc(C(F)F)n4)ccc32)n1 (centres unmarked) [Compound 23] | pIC50 | 4.50 |

(A) C[C@@H](O)Cn1cc(C(=O)N[C@@H]2CCc3cc(-c4noc(C5CC5)n4)ccc32)cn1 [Compound 576]
(B) CCc1nc(-c2ccc3c(c2)CC[C@H]3NC(=O)c2ccn(CCO)n2)no1 [Compound 608]
// compare: A vs B , metric pIC50, want the smaller In your reply, give the label of the chosen option.
A

(P) CCc1nc(-c2ccc3c(c2)CC[C@H]3NC(=O)c2cnn(CCO)c2)no1 [Compound 474]
(Q) CCc1nc(-c2ccc3c(c2)CC[C@H]3NC(=O)c2ccn(C)n2)no1 [Compound 592]
// compare: P vs Q , metric pIC50, want the smaller In your reply, give the label of the chosen option.
Q
(Q: 4.96, P: 5.66)

----------
- test.system: bovine cardiac myofibrils (full-length cardiac myosin ATPase in the native sarcomere) (Bos taurus (Bovine), UniProt Q9BE39)
- run.description: Skinned bovine cardiac myofibril ATPase assay (PK/LDH-coupled)
- Type: biochemical
- experimental.setup: Ca2+ activating to 75% of maximal rate, concentration giving 15% inhibition
endpoint: CDMF75 IC15 (µM)

Here's what some known entries look like.
| compound | endpoint.value |
| --- | --- |
| Cc1nn(C)cc1C(=O)N[C@@H]1CCc2cc(-c3noc(C4CC4)n3)ccc21 | 0.4 |
| CCc1nc(-c2ccc3c(c2)CCC[C@H]3NC(=O)c2cnn(C)c2)no1 | 2.2 |
| Cn1cc(C(=O)N[C@@H]2COc3cc(-c4noc(C(F)F)n4)ccc32)cn1 | 0.5 |

(I) Cc1cc(C(=O)NC2CCc3cc(-c4ncc(C)o4)ccc32)ccn1 (centres unmarked)
(II) CCc1nc(-c2ccc3c(c2)CC[C@H]3NC(=O)c2cnnc(C)c2)no1
(III) CC(C)c1nc(-c2ccc3c(c2)CC[C@H]3NC(=O)C(F)F)no1
(IV) CCc1nc(-c2ccc3c(c2)CC[C@H]3NC(=O)C2CCCC(=O)N2)no1 (some centres unmarked)
(V) Cc1nc(C)c(C(=O)NC2COc3cc(-c4noc(C(F)F)n4)ccc32)o1 (centres unmarked)
// sort entries: CDMF75 IC15, high to low Put the labels in the order asked and list them.
IV, I, III, V, II
(IV: 34.1 µM, I: 7.6 µM, III: 3.7 µM, V: 1.0 µM, II: 0.6 µM)

----------
- test.system: bovine cardiac myofibrils (full-length cardiac myosin ATPase in the native sarcomere) (Bos taurus (Bovine), UniProt Q9BE39)
- run.description: Skinned bovine cardiac myofibril ATPase assay (PK/LDH-coupled)
- Format: biochemical
- experimental.setup: Ca2+ activating to 75% of maximal rate, concentration giving 15% inhibition
endpoint: CDMF75 IC15 (nM)

| compound.structure | CDMF75 IC15 (nM) |
| --- | --- |
| CCc1nc(-c2ccc3c(c2)CC[C@H]3NC(=O)OC2CCC2)no1 | 400 |
| [2H]C([2H])([2H])c1noc(-c2ccc3c(c2)OC[C@H]3NC(=O)c2cnn(C)c2)n1 | 1800 |
| Cc1noc(-c2ccc3c(c2)OC[C@H]3NC(=O)c2cnn(C)c2)n1 | 1600 |

(A) Cc1cc(C(=O)N[C@@H]2CCc3cc(-c4nc(C)no4)ccc32)ccn1
(B) O=C(N[C@@H]1CCc2cc(-c3noc(C(F)F)n3)ccc21)c1ccnc(C(F)F)c1
(C) O=C1CC[C@H](C(=O)N[C@@H]2CCc3cc(-c4noc(C5CC5)n4)ccc32)N1
(D) CCc1cc(-c2ccc3c(c2)OC[C@H]3NC(=O)c2ccnc(C)c2)no1
(E) CC#Cc1ccc2c(c1)CC[C@H]2NC(=O)c1ccnn1C
// sort entries: CDMF75 IC15, high to low Put the labels in the order asked and list them.
C, E, A, B, D
(C: 30900 nM, E: 4300 nM, A: 1400 nM, B: 700 nM, D: 300 nM)

----------
- test.system: bovine cardiac myofibrils (full-length cardiac myosin ATPase in the native sarcomere) (Bos taurus (Bovine))
- run.description: Skinned bovine cardiac myofibril ATPase assay (PK/LDH-coupled)
- Assay type: biochemical
- experimental.setup: Ca2+ activating to 75% of maximal rate, concentration giving 15% inhibition
- Method: To evaluate the effect of compounds on the ATPase activity of full-length cardiac myosin in the context of the native sarcomere, skinned myofibril assays were performed. […] Small molecule agents were assessed for their ability to inhibit the steady-state ATPase activity of bovine cardiac myofibrils using pyruvate kinase and lactate dehydrogenase (PK/LDH)-coupled enzyme system. This assay regenerates myosin-produced ADP into ATP by oxidizing NADH, producing an absorbance change at 340 nm. […]
endpoint: CDMF75 IC15 (µM)

Here's what some known entries look like.
| compound | CDMF75 IC15, µM |
| --- | --- |
| CCc1nc(-c2ccc3c(c2)OC[C@H]3NC(=O)N2CC[C@@H](F)C2)no1 [Compound 743] | 7.4 |
| CCc1nc(-c2ccc3c(c2)CC[C@H]3NC(=O)c2nonc2C)no1 [Compound 633] | 0.2 |
| Cc1nc(-c2ccc3c(c2)CCC3NC(=O)c2cn(C)nc2C)no1 (centres unmarked) [Compound 55] | 2.0 |
| Cc1cc(-c2ccc3c(c2)CC[C@H]3NC(=O)c2cn[nH]c2C)no1 [Compound 432] | 0.8 |
| Cc1cc(C(=O)N[C@@H]2CCc3cc(-c4noc(C(C)C)n4)ccc32)ccn1 [Compound 392] | 0.9 |
| CCc1nc(-c2ccc3c(c2)OC[C@H]3NC(=O)N2CC[C@@H](O)C2)no1 [Compound 740] | 1.9 |

(1) [2H]C([2H])([2H])c1nc(-c2ccc3c(c2)CC[C@H]3NC(=O)c2cn(C)nc2C)no1 [Compound 246]
(2) CCNC(=O)N[C@@H]1CCc2cc(-c3noc(C(F)F)n3)ccc21 [Compound 296]
// compare: 1 vs 2 , metric CDMF75 IC15, want the smaller In your reply, give the label of the chosen option.
1
(1: 1.1 µM, 2: 5.8 µM)

----------
- test.system: bovine cardiac myofibrils (full-length cardiac myosin ATPase in the native sarcomere) (Bos taurus (Bovine))
- run.description: Skinned bovine cardiac myofibril ATPase assay (PK/LDH-coupled)
- experimental.setup: Ca2+ activating to 75% of maximal rate, read-out: CDMF75 IC50
endpoint: IC50 (µM)

| compound | IC50 [µM] |
| --- | --- |
| [2H]C([2H])([2H])c1nc(-c2ccc3c(c2)OC[C@H]3NC(=O)c2oc(C)nc2C)no1 | 5.1 |

(I) CCc1nc(-c2ccc3c(c2)CC[C@H]3NC(=O)c2cn(C)nn2)no1
(II) [2H]C([2H])([2H])c1nc(-c2ccc3c(c2)CC[C@H]3NC(=O)c2cn[nH]c2)no1
(III) Cc1nc(-c2ccc3c(c2)OCC3NC(=O)c2cn(C)nc2C)no1 (centres unmarked)
(IV) CCc1nc(-c2ccc3c(c2)CC[C@H]3NC(C)=O)no1
// sort entries: IC50, high to low Put the labels in the order asked and list them.
I, III, II, IV

----------
- test.system: bovine cardiac myofibrils (full-length cardiac myosin ATPase in the native sarcomere) (Bos taurus (Bovine), UniProt Q9BE39)
- run.description: Skinned bovine cardiac myofibril ATPase assay (PK/LDH-coupled)
- experimental.setup: Ca2+ activating to 75% of maximal rate, read-out: CDMF75 IC50
pIC50: −log10 of the molar value.
endpoint: pIC50

Here's what some known entries look like.
| molecule | pIC50 |
| --- | --- |
| CCc1nc(-c2ccc3c(c2)CC[C@H]3NC(=O)c2cnn(C[C@@H](C)O)c2)no1 | 5.46 |
| COCc1nc(-c2ccc3c(c2)CC[C@H]3NC(=O)c2oncc2C)no1 | 5.70 |
| CC(=O)O[C@@H](C)c1nc(-c2ccc3c(c2)CCC3NC(=O)c2cn(C)nc2C)no1 (stereo partly shown) | 4.59 |
| COCc1nc(-c2ccc3c(c2)CC[C@H]3NC(=O)c2ccnc(C)c2)no1 | 5.35 |
| CCc1nc(-c2ccc3c(c2)CC[C@H]3NC(=O)c2cnnc(C)c2)no1 | 5.66 |

(P) CCn1nccc1C(=O)NC1CCc2cc(-c3noc(C)n3)ccc21 (stereo not shown)
(Q) CCc1nc(-c2ccc3c(c2)CC[C@H]3NC(=O)c2cnn(C3CNC3)c2)no1
(R) CCc1cc(-c2ccc3c(c2)OC[C@H]3NC(=O)c2ocnc2C)no1
// sort entries: pIC50, high to low Put the labels in the order asked and list them.
R, P, Q

(a) Cc1cncc(-c2ccc3c(c2)CC[C@H]3NC(=O)c2ccnn2C)n1
(b) CCc1nc(-c2ccc3c(c2)CC[C@H]3NC(=O)c2cnn(C3CN(C(C)=O)C3)c2)no1
API: POST /compare with a and b ; response names the item with higher pIC50. In your reply, give the label of the chosen option.
a
(a: 5.00, b: 4.41)
